Type: in vivo, human
Condition notes: human, plasma, oral, 200 mg/m2, AUC0–8h, median (range), Capsule, 200 mg/m^2 (n=7), Day 1 Cycle 1, with food
Measurement label: AUC(0-t)

Query block: Consider the compound O=C1NC(=O)[C@@H](c2cn3c4c(cccc24)CCC3)[C@@H]1c1c[nH]c2ccccc12 [Tivantinib] and give its measured AUC(0-t).
Result block: 9470 ng·h/mL

###

Type: in vivo, human
Condition notes: human, plasma, oral, 240 mg/m2, AUC0–8h, median (range), Powder sprinkled on food, 240 mg/m^2 (n=9), Day 1 Cycle 1
Measurement label: AUC(0-t)
Don't forget the unit after the value.

Query block: Consider the compound O=C1NC(=O)[C@@H](c2cn3c4c(cccc24)CCC3)[C@@H]1c1c[nH]c2ccccc12 [Tivantinib] and give its measured AUC(0-t).
Result block: 7300 ng·h/mL

###

Type: in vivo, human
Condition notes: human, plasma, po
Measurement label: Tmax

Query block: Consider the compound O=C1NC(=O)[C@@H](c2cn3c4c(cccc24)CCC3)[C@@H]1c1c[nH]c2ccccc12 [Tivantinib] and give its measured Tmax.
Result block: ~2 h

###

Format: in vivo, human
Condition notes: human, plasma, oral, 200 mg/m2
Measurement label: Tmax (h)
Enter your answer as a number in h; do not include the unit.

Query block: Consider the molecule O=C1NC(=O)[C@@H](c2cn3c4c(cccc24)CCC3)[C@@H]1c1c[nH]c2ccccc12 [Tivantinib] and give its measured Tmax.
Result block: 4

Hello, the source for this data is paper PMC5657151, in case you need it.
